Numbers sourced from ChEMBL document CHEMBL5352464.

Test: Selectivity ratio of EC50 for antiviral activity against VSV-G pseudotyped HIV1 NL4-3 infected in human SUP-T1 cells assessed as inhibition of early stage viral replication to EC50 for antiviral activity against VSV-G pseudotyped HIV1 NL4-3 infected in HEK293T cells assessed as inhibition of late stage viral replication
Type: functional, Human immunodeficiency virus 1
quantity kind: Ratio EC50
Enter the number alone.

Known results for compounds:
For `COc1ccc(S(=O)(=O)N(CC(C)C)C[C@@H](O)[C@H](Cc2ccccc2)NC(=O)c2cc3cc(O)c(O)cc3o2)cn1` , what is its reported Ratio EC50?
3.45

Further, for `COc1ccc(S(=O)(=O)N(CC(C)C)C[C@@H](O)[C@H](Cc2ccccc2)NC(=O)c2cc3cc(O)c(O)cc3o2)cc1` ?
2.12

Further, for `COc1ccc(S(=O)(=O)N(CC(C)C)C[C@@H](O)[C@H](Cc2ccccc2)NC(=O)c2cc3cc(O)c(O)cc3[nH]2)cn1` ?
61.59

Turning to the following compound.
For `COc1ccc(S(=O)(=O)N(CC(C)C)C[C@@H](O)[C@H](Cc2ccccc2)NC(=O)c2coc3cc(O)c(O)cc23)cn1` , what is its reported Ratio EC50?
12.88

* * *

Dear all, this message contains IC50 results, target or system UniProt Q72547.
Only the number, expressed in µM, is required.

For `COc1ccc(S(=O)(=O)N(CC(C)C)C[C@@H](O)[C@H](Cc2ccccc2)NC(=O)c2cc3cc(O)c(O)cc3[nH]2)cn1` , what is its reported IC50?
1.52

Further, for `COc1ccc(S(=O)(=O)N(CC(C)C)C[C@@H](O)[C@H](Cc2ccccc2)NC(=O)c2coc3cc(O)ccc23)cc1` ?
60.3

Further, for `COc1ccc(S(=O)(=O)N(CC(C)C)C[C@@H](O)[C@H](Cc2ccccc2)NC(=O)c2cc3ccccc3o2)cc1` ?
65.5

Further, for `COc1ccc(S(=O)(=O)N(CC(C)C)C[C@@H](O)[C@H](Cc2ccccc2)NC(=O)c2cc3ccc(O)cc3[nH]2)cc1` ?
164

Further, for `COc1ccc(S(=O)(=O)N(CC(C)C)C[C@@H](O)[C@H](Cc2ccccc2)NC(=O)c2cc3cc(O)c(O)cc3o2)cn1` ?
5.82

Further, for `CC(C)CN(C[C@@H](O)[C@H](Cc1ccccc1)NC(=O)c1cc2ccc(O)cc2[nH]1)S(=O)(=O)c1ccc(N)cc1` ?
178

Further, for `COc1ccc(S(=O)(=O)N(CC(C)C)C[C@@H](O)[C@H](Cc2ccccc2)NC(=O)c2cc3cc(O)c(O)cc3[nH]2)cc1` ?
96.5

Further, for `COc1ccc(S(=O)(=O)N(CC(C)C)C[C@@H](O)[C@H](Cc2ccccc2)NC(=O)c2cc3cc(O)c(O)cc3o2)cc1` ?
2.35

Turning to the following compound.
For `CC(C)CN(C[C@@H](O)[C@H](Cc1ccccc1)NC(=O)c1cc2cc(O)ccc2[nH]1)S(=O)(=O)c1ccc(N)cc1` , what is its reported IC50?
102

* * *

Biological target: Human immunodeficiency virus type 1 protease (Human immunodeficiency virus 1, UniProt Q72874)
Assay: Inhibition of HIV-1 protease expressed in Escherichia coli using Arg-Glu-(EDANS)-Ser-Gln-Asn-Tyr-Pro-Ile-Val-Gln-Lys-([…])-Arg as substrate preincubated with compound for 20 to 30 mins followed by substrate addition and measured after 10 mins by FRET analysis
pIC50: −log10 of the molar value.
Label 1 when pIC50 is at or above 6; otherwise label 0.

Record excerpt, results attached:
Kindly determine if pIC50 recorded for `COc1ccc(S(=O)(=O)N(CC(C)C)C[C@@H](O)[C@H](Cc2ccccc2)NC(=O)c2cc3cc(O)ccc3[nH]2)cc1` is above or exactly 6.
1

Further, for `CC(C)CN(C[C@@H](O)[C@H](Cc1ccccc1)NC(=O)c1cc2ccccc2o1)S(=O)(=O)c1ccc(N)cc1` ?
0

Further, for `COc1ccc(S(=O)(=O)N(CC(C)C)C[C@@H](O)[C@H](Cc2ccccc2)NC(=O)c2cc3ccc(O)cc3[nH]2)cn1` ?
1

Further, for `COc1ccc(S(=O)(=O)N(CC(C)C)C[C@@H](O)[C@H](Cc2ccccc2)NC(=O)c2cc3ccc(N)cc3o2)cc1` ?
0

Further, for `COc1ccc(S(=O)(=O)N(CC(C)C)C[C@@H](O)[C@H](Cc2ccccc2)NC(=O)c2cc3ccc(O)cc3[nH]2)cc1` ?
1

Let's switch to this molecule now.
Kindly determine if pIC50 recorded for `CC(C)CN(C[C@@H](O)[C@H](Cc1ccccc1)NC(=O)c1cc2cc(O)ccc2o1)S(=O)(=O)c1ccc(N)cc1` is above or exactly 6.
0
